system: HCT-116 colon; test: NCI tumour cell line growth inhibition, 48 h
The compounds listed here are annotated with their log10 of TGI.
Annotation: log10 of TGI, µM basis.

// known answers, use as guide
COc1cc(/C=N/NC(=O)c2cnn3c2NC(c2ccccc2)C3)ccc1OCc1ccccc1 (centres undefined)	1.07
NP1(Oc2ccc(F)cc2)=NP(N)(Oc2ccc(F)cc2)=NP(Oc2ccc(F)cc2)(Oc2ccc(F)cc2)=N1 (centres undefined)	1.20

Query: What does the record list as log10 of TGI for CC(C)(C)n1cc(-c2ccnc(NCCCNS(=O)(=O)c3cccc4ccccc34)c2)c(-c2cccc(O)c2)n1 ?
Result: 0.46

Query: What does the record list as log10 of TGI for Cc1ccccc1NC(=O)C(=O)C(C(=O)c1ccccc1F)C1OC(=O)c2ccccc21 (centres undefined) ?
Result: 1.46

---

system: SK-MEL-5 melanoma; experiment: NCI tumour cell line growth inhibition, 48 h
The compounds listed here are annotated with their TGI.

COc1cc(/C=N/NC(=O)c2cnn3c2NC(c2ccccc2)C3)ccc1OCc1ccccc1 (centres undefined)	2.8 µM
COc1ccc2cc(CNCCCCCCNC(=O)Nc3cccc4ccccc34)ccc2c1	> 100 µM
CCNC(=O)O/N=C1\CCC2[C@@H]3CC=C4C[C@@H](OC(=O)NCC)CC[C@]4(C)C3CC[C@]12C (some centres undefined)	10.4 µM
CC(=O)OC1COC(N2C(=O)C(=O)c3ccccc32)C(OC(C)=O)C1OC(C)=O (centres undefined)	> 100 µM
O=C(C=P(c1ccccc1)(c1ccccc1)c1ccccc1)c1ccccc1-c1ccccc1C(=O)C=P(c1ccccc1)(c1ccccc1)c1ccccc1	0.0263 µM
O=[N+]([O-])C(/C=C(\Cl)[N+](=O)[O-])=C(N1CCOCC1)N1CCOCC1	> 100 µM
O=C(O)CN(CCN(CC(=O)O)CC(=O)O)CC(=O)O.[Cu+2].[Na+]	> 100 µM
CSC(SC)=C(C#N)C(=O)Nc1ccc(Cl)cc1	> 100 µM

Shifting focus to the compound that follows.
Query: What does the record list as TGI for CC1=C(\C=C/C(C)=C/C=C/C(C)=C/C=C/C=C(C)\C=C\C=C(C)/C=C/C2=C(C)CCCC2(C)C)C(C)(C)CCC1 ?
Result: > 100 µM

---

system: HOP-62 NSCLC; test: NCI tumour cell line growth inhibition, 48 h
quantity: TGI (µM)
Hi! Could you send only the number? It should be in µM, unit omitted.

// known answers, use as guide
Cc1[nH]c2c(C)c3c([nH]c4ccc(Cl)cc43)c(C)c2c(=O)c1C	19.8
C=C(C)[C@@H]1CC[C@]2(C(=O)O)CC[C@]3(C)[C@H](CC[C@@H]4[C@@]5(C)CCC(N)C(C)(C)[C@@H]5CC[C@]43C)[C@@H]12 (stereo partly specified)	7
CC/C(=C/c1ccc(OC)cc1)[N+](=O)[O-]	5.89

Shifting focus to the molecule that follows.
Query: What does the record list as TGI for COc1cccc(/C=C\C(=O)c2ccccc2)c1 ?
Result: 42.1

---

tested on: SK-OV-3 ovarian; experiment: NCI tumour cell line growth inhibition, 48 h
The compounds listed here are annotated with their TGI.
Hi! Could you send only the number? It should be in µM, unit omitted.

CCNC(=O)O/N=C1\CCC2[C@@H]3CC=C4C[C@@H](OC(=O)NCC)CC[C@]4(C)C3CC[C@]12C (stereo not given in full)	19.7

Shifting focus to the compound that follows.
Query: Item: C=C1C(=O)C23C(O)CC4C(C)(C)CCC(O)C4(C)C2CC(OC(C)=O)C1[C@H]3O (stereo not given in full) Test system: SK-OV-3 ovarian Read-out: TGI Value: ?
Result: 41.4
